- target_system: T1, hCD40-His (Human CD40 protein having a His-Tag, Beijing ACROBiosystems Co. Ltd., Cat #: CD0-H5228) (human, UniProt P25942 21-193)
- T1 construct: Bought protein; not shown: His tag
- T1 sequence (P25942 21-193 limits assumed): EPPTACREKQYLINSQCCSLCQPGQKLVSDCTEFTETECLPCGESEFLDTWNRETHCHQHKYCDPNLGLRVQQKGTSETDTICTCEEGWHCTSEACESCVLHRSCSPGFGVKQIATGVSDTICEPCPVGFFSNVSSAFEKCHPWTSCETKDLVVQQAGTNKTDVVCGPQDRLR
- experiment_description: SPR, Biacore 8K, Protein A chip, CD40-His as analyte, 1:1 Langmuir fit
- Protocol: Purified anti-CD40 antibodies at concentrations of 1 μg/ml with 1×HBS-EP+ buffer (PH 7.4) were then injected at 1 μl/min for 50 seconds. Dissociation was monitored for 400 seconds. The chip was regenerated after the last injection of each titration with a glycine solution (pH 2.0) at 30 μl/min for 30 seconds.
reported_property: koff (s⁻¹)
Report only the number, with the unit s⁻¹ understood.

Some solved cases for reference:
• 6A4-IgG4-FLAA (antibody, V domains shown, Rest: human IgG4 constant regions with FLAA mutations (F234A and L235A, EU numbering)) VH: QVQLVQSGGGLVQPGGSLRLSCAASGFTFSNYVMSWVRQAPGKGLEWVSTIRGSGISTYYTDSVKGRFTTSRDNPKNTLFLQMSSLRAEDTAVYYCAKGIVGATTPFDYWGQGTLVTVSS VL: EIVLTQSPATLSLSPGERATLSCRASQSVRSFLAWYQQKPGQAPRLLIYETSNRATGIPARFSGSGSGTDFTLTISSLEPEDFAVYYCQQRSDWPPTFGQGTKVEIKR = 0.000511
• 2F8-IgG4-FLAA (antibody, V domains shown, Rest: human IgG4 constant regions with FLAA mutations (F234A and L235A, EU numbering)) VH: EVQLVQSGGGVVQPGRSLRLSCAASGFSFSSYAMHWVRQVPGKGLEWVSVISYDGDNKYHAESVKGRFTISRDNSKNILYLQMNSLRPEDTAVYYCARRGTVTNYYSYSGLDVWGQGTTVTVSS VL: DIQLTQSPLSLPVTPGEPASISCRSSQSLLYSNGKNYLDWYLQKPGQSPQLLIYLASNRASGVPDRFSGSGSGTDFTLKISRVEAEDVGVYFCMQALQTPRTFGQGTKVEIKR = 0.000229
• 12B5-IgG4-FLAA (antibody, V domains shown, Rest: human IgG4 constant regions with FLAA mutations (F234A and L235A, EU numbering); copies: 2 + 2) VH: QVQLVQSGPGLVKPSETLSLTCTVSGGSISYYYWSWIRQPPGKGLEWIGHISYSGSTNYNPSLKSRVTISEDTSKKQFSLKLDSVTAADTAVYYCAGGIVGARRGFDFWGQGTLVTVSS VL: EIVMTQSPATLSLSPGERATLSCRASQSVSNNLAWYQQKPGQAPRLLIYDASNRAADIPARFSGSGSGTDFTLTISSLEPEDFAVYYCQQRNNWPPTFGQGTKVEIKR = 0.000389

Now look at this one.
Prompt line: Can you share its koff? I mean this binder: Bleselumab analog (antibody, human IgG4, V domains shown) VH: QLQLQESGPGLLKPSETLSLTCTVSGGSISSPGYYGGWIRQPPGKGLEWIGSIYKSGSTYHNPSLKSRVTISVDTSKNQFSLKLSSVTAADTAVYYCTRPVVRYFGWFDPWGQGTLVTVSS VL: AIQLTQSPSSLSASVGDRVTITCRASQGISSALAWYQQKPGKAPKLLIYDASNLESGVPSRFSGSGSGTDFTLTISSLQPEDFATYYCQQFNSYPTFGQGTKVEIKR
Response line: 0.000682

Entry source: patent US20260250403A1
